Ref: patent US20210228731A1

# Target Under Test: T1, Cynomolgus monkey cKIT D1-5 (cynomolgus monkey, UniProt P10721 26-524 (human entry))
# T1 construct: also called cyno cKIT ECD
# T1 chain: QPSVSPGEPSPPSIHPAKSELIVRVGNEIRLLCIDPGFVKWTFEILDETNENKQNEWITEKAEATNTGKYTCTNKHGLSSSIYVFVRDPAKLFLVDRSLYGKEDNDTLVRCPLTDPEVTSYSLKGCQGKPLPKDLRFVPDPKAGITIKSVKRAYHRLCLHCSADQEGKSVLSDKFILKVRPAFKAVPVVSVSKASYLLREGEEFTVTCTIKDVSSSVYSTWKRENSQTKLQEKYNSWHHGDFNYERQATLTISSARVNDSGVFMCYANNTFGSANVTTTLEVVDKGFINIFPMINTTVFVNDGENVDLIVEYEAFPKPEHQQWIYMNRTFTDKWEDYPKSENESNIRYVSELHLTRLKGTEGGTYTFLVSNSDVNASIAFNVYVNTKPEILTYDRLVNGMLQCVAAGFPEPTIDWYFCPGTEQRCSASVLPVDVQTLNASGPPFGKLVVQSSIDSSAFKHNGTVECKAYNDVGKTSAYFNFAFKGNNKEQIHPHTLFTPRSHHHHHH
# Assay Notes: SET per the column head (Example 4 describes SPR, Biacore: antibody captured by anti-human Fc, cKIT ECD in solution)
Quantity Measured: pKd
Numbers only, as −log10 of the molar value.

Use these answered entries as a reference point.
Binder	Quantity Measured	Numeric Readout
Anti-cKIT Ab1 (antibody, human IgG1, kappa, V domains shown, Full-length human IgG1, kappa light chain) VH: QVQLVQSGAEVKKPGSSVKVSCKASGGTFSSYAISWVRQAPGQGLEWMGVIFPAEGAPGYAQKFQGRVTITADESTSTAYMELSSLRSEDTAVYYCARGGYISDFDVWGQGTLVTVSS VL: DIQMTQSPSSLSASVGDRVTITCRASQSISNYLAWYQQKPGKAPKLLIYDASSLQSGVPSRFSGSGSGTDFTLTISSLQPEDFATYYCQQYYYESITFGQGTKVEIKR	pKd	9.77
Anti-cKIT Ab5 (antibody, human IgG1, lambda, V domains shown, Full-length human IgG1, lambda light chain) VH: QVQLVQSGAEVKKPGESLKISCKGSGYSFTNYWIAWVRQMPGKGLEWMGIIYPSNSYTLYSPSFQGQVTISADKSISTAYLQWSSLKASDTAMYYCARVPPGGSISYPAFDHWGQGTLVTVSS VL: DIELTQPPSVSVSPGQTASITCSGDNIGSIYASWYQQKPGQAPVLVIYRDNKRPSGIPERFSGSNSGNTATLTISGTQAEDEADYYCSVTDMEQHSVFGGGTKLTVLG	pKd	9.74

Reported pKd of Anti-cKIT Ab4 (antibody, human IgG1, lambda, V domains shown, Full-length human IgG1, lambda light chain) VH: QVQLQQSGPGLVKPSQTLSLTCAISGDSVSTNSAAWNWIRQSPSRGLEWLGRIYYRSQWLNDYAVSVKSRITINPDTSKNQFSLQLNSVTPEDTAVYYCARQLTYPYTVYHKALDVWGQGTLVTVSS VL: DIELTQPPSVSVSPGQTASITCSGDNLGDQYVSWYQQKPGQAPVLVIYDDTDRPSGIPERFSGSNSGNTATLTISGTQAEDEADYYCQSTDSKSVVFGGGTKLTVLG : 9.85
